Biological target: NR2F6 (Homo sapiens, UniProt P10588)
Construct: expressed in transfected cells; also transient transfection
Sequence (P10588 1-404): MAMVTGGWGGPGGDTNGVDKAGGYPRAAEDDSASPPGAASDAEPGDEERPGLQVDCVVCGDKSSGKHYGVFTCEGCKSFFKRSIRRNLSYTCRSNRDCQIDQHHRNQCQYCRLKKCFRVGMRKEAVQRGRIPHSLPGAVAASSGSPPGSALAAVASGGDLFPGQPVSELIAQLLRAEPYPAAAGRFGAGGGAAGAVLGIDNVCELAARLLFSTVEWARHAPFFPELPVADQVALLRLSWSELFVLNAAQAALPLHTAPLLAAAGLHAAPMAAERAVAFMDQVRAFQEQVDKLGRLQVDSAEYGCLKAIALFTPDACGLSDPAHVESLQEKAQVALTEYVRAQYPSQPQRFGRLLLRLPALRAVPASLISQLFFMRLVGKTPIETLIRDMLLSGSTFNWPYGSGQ
Test: NR2F6 agonist screening, Firefly signal cmpd/DMSO
Type: cell-based
Design: unit of the concentration uncertain
Conditions: Concentration 2 (unit uncertain); F4
Assign labels as follows, please: t for Firefly F4, cmpd/DMSO (mean) below 1; f for Firefly F4, cmpd/DMSO (mean) equal to or exceeding 1.

* Cc1cccn2cc(CNS(=O)(=O)c3ccccc3F)nc12 | t
* Cc1ccc(S(=O)(=O)NCc2cn3cccc(C)c3n2)cc1C | t
* COc1ccc(Cl)cc1S(=O)(=O)NCc1nc2nc(C)cc(C)n2n1 | f
* Cc1cc(C)c(S(=O)(=O)NCc2nc3nc(C)cc(C)n3n2)c(C)c1 | f
* COc1ccc(OC)c(S(=O)(=O)NCc2nc3nc(C)cc(C)n3n2)c1 | t

---

System: Renilla
Assay: Renilla signal in NR2F6 agonist screening, cmpd/DMSO
Assay type: cell-based
Settings: Renilla, F4; 1% FBS; 0.5 uM; read-out: Renilla, F4, 1% FBS, cmpd/DMSO (mean)
As shown below, each of these molecules has a reported fold induction at 0.5 µM value.
Parameter Measured: fold induction at 0.5 µM

- Cc1cc(S(=O)(=O)[C@H]2CS(=O)(=O)C[C@@H]2NCC2CCCO2)ccc1F (stereo partly shown) [Compound D115]: 1.1
- CC(C)CCN[C@H]1CS(=O)(=O)C[C@@H]1S(=O)(=O)c1ccc(Cl)cc1 [Compound D131]: 1
- O=S1(=O)C[C@H](N2CCCCC2)[C@@H](S(=O)(=O)c2ccc(Cl)cc2)C1 [Compound D123]: 1.1
- Cc1cccc(CN[C@H]2CS(=O)(=O)C[C@@H]2S(=O)(=O)c2ccc(Cl)cc2)c1 [Compound D127]: 1.1
- CC(C)CN[C@H]1CS(=O)(=O)C[C@@H]1S(=O)(=O)c1ccc(Cl)cc1 [Compound D120]: 1
- O=S1(=O)C[C@H](NCc2ccco2)[C@@H](S(=O)(=O)c2cccs2)C1 [Compound D135]: 1
- CCCN[C@H]1CS(=O)(=O)C[C@@H]1S(=O)(=O)c1ccc(Cl)cc1 [Compound D117]: 1
- CC(=O)N1CCN([C@H]2CS(=O)(=O)C[C@@H]2S(=O)(=O)c2ccc(F)c(C)c2)CC1 [Compound D116]: 1
- COCCCN[C@H]1CS(=O)(=O)C[C@@H]1S(=O)(=O)c1ccc(Cl)cc1 [Compound D126]: 1.2
- CC(C)CCN[C@H]1CS(=O)(=O)C[C@@H]1S(=O)(=O)c1cccs1 [Compound D110]: 1
- CC(=O)Nc1ccc(S(=O)(=O)[C@H]2CS(=O)(=O)C[C@@H]2NC2CC2)cc1 [Compound D133]: 1
- CC(C)OCCCN[C@H]1CS(=O)(=O)C[C@@H]1S(=O)(=O)c1ccc(Cl)cc1 [Compound D138]: 1.3
- O=S1(=O)C[C@H](N2CCCC2)[C@@H](S(=O)(=O)c2cccs2)C1 [Compound D104]: 1.1
- O=S1(=O)C[C@H](N2CCCC2)[C@@H](S(=O)(=O)c2ccc(Cl)cc2)C1 [Compound D122]: 1.2
- COCCN[C@H]1CS(=O)(=O)C[C@@H]1S(=O)(=O)c1cccs1 [Compound D107]: 0.9
- O=S1(=O)C[C@H](NC2CCCCC2)[C@@H](S(=O)(=O)c2ccc(Cl)cc2)C1 [Compound D124]: 1.1
- COCCN[C@H]1CS(=O)(=O)C[C@@H]1S(=O)(=O)c1ccc(Cl)cc1 [Compound D136]: 1.1
- CCCCN(C)[C@H]1CS(=O)(=O)C[C@@H]1S(=O)(=O)c1ccc(Cl)cc1 [Compound D132]: 1.1
- O=S1(=O)C[C@H](NC2CCCCC2)[C@@H](S(=O)(=O)c2ccccc2)C1 [Compound D111]: 1.1
- CCC(C)N[C@H]1CS(=O)(=O)C[C@@H]1S(=O)(=O)c1ccc(C)cc1 (stereo partly shown) [Compound D113]: 1.3
- O=S1(=O)C[C@H](N2CCCCC2)[C@@H](S(=O)(=O)c2cccs2)C1 [Compound D105]: 1.1
- C[C@@H]1C[C@H](C)CN([C@H]2CS(=O)(=O)C[C@@H]2S(=O)(=O)c2ccccc2)C1 [Compound D112]: 1.1
- CCCCN[C@H]1CS(=O)(=O)C[C@@H]1S(=O)(=O)c1ccc(Cl)cc1 [Compound D119]: 1.1
- COc1ccc(CCN[C@H]2CS(=O)(=O)C[C@@H]2S(=O)(=O)c2ccc(Cl)cc2)cc1OC [Compound D129]: 1.1
- O=S1(=O)C[C@H](NCc2ccncc2)[C@@H](S(=O)(=O)c2cccs2)C1 [Compound D108]: 1
- CC1CCN([C@H]2CS(=O)(=O)C[C@@H]2S(=O)(=O)c2cccs2)CC1 [Compound D106]: 1.2
- O=S1(=O)C[C@H](NC2CCCCCC2)[C@@H](S(=O)(=O)c2ccc(Cl)cc2)C1 [Compound D130]: 1.1
- O=S1(=O)C[C@H](NC2CCCC2)[C@@H](S(=O)(=O)c2ccc(F)cc2)C1 [Compound D114]: 1.1
- C[C@@H]1C[C@H](C)CN([C@H]2CS(=O)(=O)C[C@@H]2S(=O)(=O)c2cccs2)C1 [Compound D109]: 1
- CC(C)N[C@H]1CS(=O)(=O)C[C@@H]1S(=O)(=O)c1ccc(Cl)cc1 [Compound D118]: 1
- CCC(C)N[C@H]1CS(=O)(=O)C[C@@H]1S(=O)(=O)c1ccc(Cl)cc1 (stereo partly shown) [Compound D121]: 1.1
- O=S1(=O)C[C@H](NCCc2cccs2)[C@@H](S(=O)(=O)c2ccc(Cl)cc2)C1 [Compound D128]: 1.2
- O=S1(=O)C[C@H](NCCCc2ccccc2)[C@@H](S(=O)(=O)c2ccc(Cl)cc2)C1 [Compound D137]: 1
- O=S1(=O)C[C@H](NCC2CCCO2)[C@@H](S(=O)(=O)c2cccs2)C1 (stereo partly shown) [Compound D134]: 1
